biological target: CYP2C9 (Homo sapiens)
READOUT_NAME: Ki (µM)

{"columns": ["MOLECULE", "RECORDED_VALUE"],
 "data": [
  ["O=C(O)CCC(=O)O [succinic acid, Succinic acid]", 9.48]
]}

====

target: CYP2C9 (Homo sapiens, UniProt P11712)
Sequence (P11712 whole entry): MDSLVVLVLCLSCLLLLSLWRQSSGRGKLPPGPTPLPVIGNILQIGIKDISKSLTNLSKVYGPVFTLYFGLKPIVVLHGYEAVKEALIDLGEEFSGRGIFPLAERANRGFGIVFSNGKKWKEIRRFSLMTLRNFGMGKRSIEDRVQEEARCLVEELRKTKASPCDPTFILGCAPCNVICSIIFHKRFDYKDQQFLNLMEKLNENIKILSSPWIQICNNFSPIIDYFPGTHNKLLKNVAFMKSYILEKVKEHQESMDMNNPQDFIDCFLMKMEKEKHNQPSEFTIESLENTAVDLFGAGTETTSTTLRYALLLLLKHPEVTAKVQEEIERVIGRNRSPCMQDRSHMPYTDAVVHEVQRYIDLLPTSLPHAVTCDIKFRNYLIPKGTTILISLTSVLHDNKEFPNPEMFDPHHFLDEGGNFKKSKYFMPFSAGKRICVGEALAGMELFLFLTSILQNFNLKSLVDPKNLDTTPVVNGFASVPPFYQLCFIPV

{"columns": ["SMILES_STR", "SUBJECT_OF_TEST", "RESULT_UNITS", "IC50"],
 "data": [
  ["O=C(O)CCC(=O)O", "CYP2C9 (Homo sapiens, UniProt P11712)", "µM", 19.6]
]}
